This section presents binders with their documented IC50, PDGFR-Y-P values.
target.under.test: platelet derived growth factor PDGF-BB (UniProt P01127 82-190)
Sequence (P01127 82-190 limits assumed): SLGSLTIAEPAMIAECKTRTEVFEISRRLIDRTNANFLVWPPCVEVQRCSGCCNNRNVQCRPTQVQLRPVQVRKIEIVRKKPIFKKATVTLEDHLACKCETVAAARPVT
assay.details: cell-based or functional assay
Positions of bridges follow the written chain, without caps; N, C: chain ends. No end group written: not given here.
The answer is to be given in nM; state only the numeric part.

# binder, unit.label, IC50, PDGFR-Y-P
records = [
    ("GDSD (designed binder, linker N-C via 3‑aminomethyl‑5‑aminobenzamide; also: four loops on But-Calix calix[4]arene scaffold) [GFB-113]", "nM", 2800),
]

Now for the binder whose IC50, PDGFR-Y-P we want.
Q) State its IC50, PDGFR-Y-P for this binder: GFB-137 (designed binder, not fully specified; also: linker to a chain's N/C-terminus via 3-aminomethyl-5-aminobenzamide) peptide 1: GDGY peptide 2: GDDG
A) 400
